target: Sgo1_(1–415) (human); assay: ITC; 100 μM CPC injected into 10 μM Sgo1 1-415 or 1-415 4A, 20°C; 50 mM Hepes pH 8, 250 mM NaCl, 5% glycerol, 1 mM TCEP, 0.005% Tween; standard 1:1 binding model
PARAMETER_MEASURED: pKd
// pKd here means minus log10 of the molar concentration (mol/L)

Q) Tell us which pKd value is on record for CPC_(ISB10–280) (INCENP_(1–58), Survivin full length, Borealin_(10–280)) (from UniProt Q9NQS7 1-58; O15392 1-142; Q53HL2 10-280) (complex)
A) 6.82
